Where do the numbers come from? From paper PMC6008492.

MEASUREMENT TARGET: SPM-1 (Pseudomonas aeruginosa, UniProt Q8G9Q0)
Sequence (Q8G9Q0 entry or part of it): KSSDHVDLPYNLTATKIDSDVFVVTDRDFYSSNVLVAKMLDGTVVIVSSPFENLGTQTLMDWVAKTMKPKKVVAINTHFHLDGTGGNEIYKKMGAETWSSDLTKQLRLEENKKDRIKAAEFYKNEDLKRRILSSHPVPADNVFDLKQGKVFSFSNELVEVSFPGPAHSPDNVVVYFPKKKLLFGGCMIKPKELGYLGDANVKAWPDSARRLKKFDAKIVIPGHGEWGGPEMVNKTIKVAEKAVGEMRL
EXPERIMENTAL PROTOCOL: SPM-1 inhibition, fluorogenic cephalosporin (FC5) hydrolysis
Assay type: biochemical
CONDITION LABEL: Table 2; read-out: IC50 versus SPM-1
Collected IC50 values appear next to each entry.
Numeric only. Scale: µM

1. O=C(O)C(S)c1ccccc1 (stereo not shown) [Compound 13a]: 0.05

Next molecule, IC50 to be filled in.
*Q* Form field - read-out: IC50; system: SPM-1 (Pseudomonas aeruginosa, UniProt Q8G9Q0); submitted item: O=C(O)C(S)Cc1ccccc1 (stereo not shown) [Compound 13b]
*A* 0.07
